Known Ki of a selection of molecules
# testName: Inhibition of baboon liver mitochondrial monoamine oxidase B using 50 uM of MMTP by spectrophotometry
# Set-up: species or system Papio
Value expressed in nM; do not type the unit.

Solved entries:
Cn1c(=O)c2c(nc(/C=C/C=C/c3cccc(Br)c3)n2C)n(C)c1=O | 21.9
Cn1c(=O)c2c(nc(/C=C/C=C/c3cccc(F)c3)n2C)n(C)c1=O | 51.4
Cn1c(=O)c2c(nc(/C=C/C=C/c3cccc(Cl)c3)n2C)n(C)c1=O | 55.6
Cn1c(=O)c2c(nc(/C=C/c3cccc(Br)c3)n2C)n(C)c1=O | 61.8

Problem: For the molecule `Cn1c(=O)c2c(nc(/C=C/C=C/c3ccccc3)n2C)n(C)c1=O` , report Ki.
Result: 221

Problem: Determine its reported Ki: `CCn1c(/C=C/C=C/c2ccccc2)nc2c1c(=O)n(C)c(=O)n2C`
Result: 1370

###

Below are pKi values measured for Adenosine receptor A2a (Rattus norvegicus, UniProt P30543).
Remember the convention: pKi equals -log10 of concentration in molar.

Cn1c(=O)c2c(nc(/C=C/C=C/c3cccc(Cl)c3)n2C)n(C)c1=O | 6.98
Cn1c(=O)c2c(nc(/C=C/C=C/c3ccccc3)n2C)n(C)c1=O | 6.82

Problem: Quickly give me recorded pKi for `CCn1c(=O)c2c(nc(/C=C/C=C/c3ccccc3)n2C)n(CC)c1=O`
Result: 8.56

###

# testName: Inhibition of baboon liver mitochondrial monoamine oxidase B using 30 to 120 uM of MMTP by spectrophotometry
# Set-up: species or system Papio
// reported Ki per item
Response body: numeric value in nM, unit text excluded.

CCn1c(/C=C/C=C/c2ccccc2)nc2c1c(=O)n(C)c(=O)n2C | 1710
Cn1c(=O)c2c(nc(/C=C/C=C/c3cccc(Cl)c3)n2C)n(C)c1=O | 42.1
Cn1c(=O)c2c(nc(/C=C/C=C/c3ccccc3)n2C)n(C)c1=O | 149
Cn1c(=O)c2c(nc(/C=C/c3ccc(Cl)c(Cl)c3)n2C)n(C)c1=O | 18.9
Cn1c(=O)c2c(nc(-c3ccccc3)n2C)n(C)c1=O | 86200

Problem: Supply reported Ki belonging to this compound: `Cn1c(=O)c2c(nc(Cc3cccc(Cl)c3)n2C)n(C)c1=O`
Result: 54600

Problem: // Input: `Cn1c(=O)c2c(nc(-c3cccc(Cl)c3)n2C)n(C)c1=O` . Output its Ki only.
Result: 36000

Problem: Given `Cn1c(=O)c2c(nc(Cc3cccc(C(F)(F)F)c3)n2C)n(C)c1=O` , respond with its Ki.
Result: 97600

Problem: Answer with reported Ki of `Cn1c(=O)c2c(nc(/C=C/c3cccc(Br)c3)n2C)n(C)c1=O`
Result: 62.7

Problem: Entry `Cn1c(=O)c2c(nc(/C=C/C=C/c3cccc(Br)c3)n2C)n(C)c1=O` needs its Ki filled in; supply it.
Result: 17.2

Problem: Provide one value: measured Ki of `Cn1c(=O)c2c(nc(/C=C/C=C/c3cccc(F)c3)n2C)n(C)c1=O`
Result: 46.4

###

# testName: Inhibition of baboon liver mitochondrial monoamine oxidase B using 50 uM of MMTP by spectrophotometry
# Parameters: species or system Papio
propertyMeasured: IC50 (nM)
Give the number; nM is assumed, so skip it.

// below: answered compounds
Cn1c(=O)c2c(nc(/C=C/C=C/c3cccc(Cl)c3)n2C)n(C)c1=O | 96.3
Cn1c(=O)c2c(nc(/C=C/C=C/c3cccc(F)c3)n2C)n(C)c1=O | 89
Cn1c(=O)c2c(nc(/C=C/C=C/c3cccc(Br)c3)n2C)n(C)c1=O | 37.9
CCn1c(/C=C/C=C/c2ccccc2)nc2c1c(=O)n(C)c(=O)n2C | 2370
Cn1c(=O)c2c(nc(/C=C/C=C/c3ccccc3)n2C)n(C)c1=O | 383

Then this compound:
Problem: Could you please provide reported IC50 for `Cn1c(=O)c2c(nc(/C=C/c3cccc(Br)c3)n2C)n(C)c1=O` ? Thanks!
Result: 107
